target: Human CD16A^(48R, 158F) fused to IgG Fc (human) (UniProt P08637); test: ELISA, coated antigen-IgG Fc
Sequence (P08637 17-208 L66R): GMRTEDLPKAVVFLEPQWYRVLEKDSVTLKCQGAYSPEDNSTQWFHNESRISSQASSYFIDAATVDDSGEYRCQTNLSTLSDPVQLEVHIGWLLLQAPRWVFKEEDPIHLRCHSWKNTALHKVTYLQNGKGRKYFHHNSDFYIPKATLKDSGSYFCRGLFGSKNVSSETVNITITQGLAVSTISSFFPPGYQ
Reported pEC50 values for a set of binders
pEC50 is defined as minus the log10 of a concentration measured in mol/L.

Completed entries (count: 2):
scFv CD16A (CD16-1) (scFv, also called LSIV21 scFv) scFv: QVQLVQSGAEVKKPGESLKVSCKASGYTFTSYYMHWVRQAPGQGLEWMGIINPSGGSTSYAQKFQGRVTMTRDTSTSTVYMELSSLRSEDTAVYYCARGSAYYYDFADYWGQGTLVTVSSGGSGGSGGSGGSGGSGGSSYVLTQPSSVSVAPGQTATISCGGHNIGSKNVHWYQQRPGQSPVLVIYQDNKRPSGIPERFSGSNSGNTATLTISGTQAMDEADYYCQVWDNYSVLFGGGTKLTVLAAAGSHHHHHH :: 7.59
scFv CD16A (CD16-5) (scFv) scFv: QVQLVQSGAEVKKPGESLKVSCKASGYTFSSYYMHWVRQAPGQGLEWMGAIEPRGVRISYAQKFQGRVTMTRDTSTSTVYMELSSLRSEDTAVYYCARGSAYYYDFADYWGQGTLVTVSSGGSGGSGGSGGSGGSGGSSYVLTQPSSVSVAPGQTARITCGGHNIGSTNVHWYQQKPGQAPVLVIYQDSKRPSGIPERFSGSNSGNTATLTISGTQAMDEADYYCQVWDNYSVQFGGGTKLTVLAAAGSHHHHHH :: 9.10

Please report the recorded pEC50 for scFv CD16A (CD16-7) (scFv) scFv: QVQLVQSGAEVKKPGESLKVSCKASGYTFTNYYMHWVRQAPGQGLEWMGVIEPDGGRRTYAQKFQGRVTMTRDTSTSTVYMELSSLRSEDTAVYYCARGSAYYYDFADYWGQGTLVTVSSGGSGGSGGSGGSGGSGGSEIVLTQSPATLSLSPGERATLSCRGHQGVSGDVHWYQQKPGQAPRLLIYQANKRASGIPARFSGSGSGTEFTLTISSLEPEDFAVYYCQQWDNYSVTFGQGTKVEIKAAAGSHHHHHH .
8.62
